Value source: patent US7998940B2

# Tested on: full length human vWF binding to lyophilized platelets
# method description: Full length human von Willebrand Factor platelet binding assay (FACS)
# Assay type: cell-based
# stated conditions: 5 nM full length human vWF, lyophilized platelets, botrocetin; both bounds in nM
Oligonucleotides are written 5' to 3', each unit as a sugar letter and its base; * is a phosphorothioate linkage, no mark a phosphodiester; rarer units and linkages stand in square brackets, end groups in braces. Plain capitals give the bases only. d = 2'-deoxy (DNA); r = 2'-OH (RNA)
measured property: Inhibition of full length hVWF binding in FACS assay, IC50 range

molecule	data value
AMX205.H10: rRdY aptamer clone (nucleic acid) rGrGrArGdCrGdCrAdCdTdCrArGdCdCrAdCdTrGdTdTrGdCdCrGrAdCrGrGdTrGrAdTrGdTrAdTdTrArAdCrGdCrGrGrGdCrArAdCrGdTdTrGrGdTrGdTdTdTdCrGrAdCdCdTdCdTdCdTrGdCdTrArGdC	no activity
AMX205.H9: rRdY aptamer clone (nucleic acid) rGrGrArGdCrGdCrAdCdTdCrArGdCdCrAdCrGrAdCrGrGdTrGrAdTrGrGrAdTdTrArGdCrGdCrGrGdTrGrGrArGrArArGrAdTrGdCrGdCdTrGdTdTrGdTdTdTdCrGrAdCdCdTdCdTdCdTrGdCdTrArGdC	no activity
AMX203.D6: rRdY aptamer clone (nucleic acid) rGrGrArGdCrGdCrAdCdTdCrArGdCdCrAdCrArGdTdTdCdTrGdTdCrGrGdTrGrAdTrGrArAdTdTrArGdCrGdCrGrArGrArGdCdTrGdTrGrGrGrAdCrGdTdTdTdCrGrAdCdCdTdCdTdCdTrGdCdTrArGdC	no activity
